# Test method notes: Pharmacokinetic evaluation in SD rats (intravenous and oral)
# Type: in vivo
# Particulars: male, Sprague-Dawley, plasma; SD rat; intravenous injection 1.0 mg/kg (oral 2.0 mg/kg); read-out: Tissue distribution Vdss
Quantity measured: Vd (L/kg)

A: CC(C)Oc1ccc(-c2nc(-c3cccc4c3CCC43CCN(C(=O)[C@@H](O)CO)C3)no2)cc1C#N (some centres unmarked)
B: COc1cc(-c2nc(-c3cccc4c3CCC43CCN(CC4(C(=O)O)CC4)C3)no2)cc(C2CCCC2)n1 (centres unmarked)
Q) Out of A and B , name the one with the higher Vd. # answer = label of selected item
A) B
(B: 5.99 L/kg, A: 1.94 L/kg)

----------
# Assayed system: S1PR1 (Homo sapiens, UniProt P21453)
# Construct: expressed in transfected cells
# Sequence (P21453 whole entry): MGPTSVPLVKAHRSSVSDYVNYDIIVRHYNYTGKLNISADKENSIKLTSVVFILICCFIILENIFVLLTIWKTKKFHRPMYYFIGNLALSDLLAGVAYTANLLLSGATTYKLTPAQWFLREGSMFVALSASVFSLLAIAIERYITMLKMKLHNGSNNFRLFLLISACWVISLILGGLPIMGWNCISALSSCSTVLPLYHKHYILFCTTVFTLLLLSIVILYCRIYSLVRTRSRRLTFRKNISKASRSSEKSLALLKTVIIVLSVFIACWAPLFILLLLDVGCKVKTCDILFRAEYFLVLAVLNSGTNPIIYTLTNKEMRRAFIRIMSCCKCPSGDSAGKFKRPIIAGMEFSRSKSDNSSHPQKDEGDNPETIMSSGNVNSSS
# Test method notes: In vitro S1PR1 agonistic activity, PathHunter cell line, chemiluminescent detection
# Type: cell-based
# Particulars: 90-180 min at 37° C.
Structures can show the parent of a compound that is named as a salt.
Quantity measured: EC50 (nM)

Observe how each entry below is paired with its result.
- Compound: "CC(C)Oc1ccc(-c2nc(-c3cccc4c3CCC43CCN(C(=O)CC#N)C3)no2)cc1C#N (stereo not shown)"
  Unit of measurement: "nM"
  EC50: 0.107
- Compound: "N#Cc1cc(-c2nc(-c3cccc4c3CCC43CCN(C(=O)CO)C3)no2)ccc1OC(F)F (stereo not shown)"
  Unit of measurement: "nM"
  EC50: 8.59

1: CC(C)Oc1ccc(-c2ncc(-c3cccc4c3CCC43CCN(CC4(C(=O)O)CC4)C3)cn2)cc1C#N (stereo not shown) [Hydrochloride of compound 25]
2: CC(C)Oc1ccc(-c2nc(-c3cccc4c3CCC43CCN(CC4(C(=O)O)CC4)C3)no2)cc1C#N (stereo not shown) [Hydrochloride of compound 22]
3: CC(C)Oc1ccc(-c2nc(-c3cccc4c3CCC43CCN(C(=O)CN)C3)no2)cc1C#N (stereo not shown) [Hydrochloride of compound 6]
4: CC(C)Oc1ccc(-c2nc(-c3cccc4c3CCC43CCN(C(=O)CO)C3)no2)cc1C#N (stereo not shown)
5: CC(C)Oc1ccc(-c2nc(-c3cccc4c3CCC43CCN(CC4(C(=O)O)CC4)C3)ns2)cc1C#N (stereo not shown) [Hydrochloride of compound 24]
Q) Order the records by EC50, with each subsequent value no larger than the one before. Returns: the labels listed in the requested order.
A) 1, 5, 3, 4, 2

----------
# Test method notes: Pharmacokinetic evaluation in SD rats (intravenous and oral)
# Type: in vivo
# Particulars: male, Sprague-Dawley, plasma; SD rat; intravenous injection 0.8 mg/kg (oral 2.4 mg/kg); read-out: Clearance rate CL
Structures can show the parent of a compound that is named as a salt.
Quantity measured: clearance (mL/min/kg)
Answer in mL/min/kg, number only, no unit symbol.

Q) Look up and report measured clearance for this entry: CC(C)Oc1ccc(-c2nc(-c3cccc4c3CCC43CCN(CC4(C(=O)O)CC4)C3)no2)cc1C#N (stereo not shown) [Hydrochloride of compound 22]
A) 3.44

----------
# Test method notes: Pharmacokinetic evaluation in SD rats (intravenous and oral)
# Type: in vivo
# Particulars: male, Sprague-Dawley, plasma; SD rat; oral administration 2.4 mg/kg; read-out: Half-life T1/2 (PO) (converted)
Counter-ions that a name gives are not always drawn.
Quantity measured: half-life (h)
Answer in h, number only, no unit symbol.

Q) Look up and report measured half-life for this entry: CC(C)Oc1ccc(-c2nc(-c3cccc4c3CCC43CCN(CC4(C(=O)O)CC4)C3)no2)cc1C#N (stereo not shown) [Hydrochloride of compound 22]
A) 4.67

----------
# Test method notes: Pharmacokinetic evaluation in SD rats (intravenous and oral)
# Type: in vivo
# Particulars: male, Sprague-Dawley, plasma; SD rat; oral administration 2.4 mg/kg; read-out: Area under the drug-time curve AUC0-last PO
Counter-ions that a name gives are not always drawn.
Quantity measured: AUC(0-t) (µM·h)
Answer in µM·h, number only, no unit symbol.

Q) Look up and report measured AUC(0-t) for this entry: CC(C)Oc1ccc(-c2nc(-c3cccc4c3CCC43CCN(CC4(C(=O)O)CC4)C3)no2)cc1C#N (stereo not shown) [Hydrochloride of compound 22]
A) 16.3

----------
# Assayed system: S1PR1 (Homo sapiens)
# Construct: expressed in transfected cells
# Test method notes: In vitro S1PR1 agonistic activity, U2OS-EDG1 cells, LiveBLAzer-FRET B/G (CCF4-AM)
# Format: cell-based
# Particulars: % Effect, read-out: Emax
Counter-ions that a name gives are not always drawn.
Quantity measured: Emax (%)

- Compound: "CC(C)Nc1ncc(-c2nc(-c3cccc4c3CCC43CCN(CC4(C(=O)O)CC4)C3)no2)cc1C#N (stereo not drawn) [Hydrochloride of compound 33]"
  Numeric result: 99.9
- Compound: "CC(C)Oc1ncc(-c2nc(-c3cccc4c3CCC43CCN(CC4(C(=O)O)CC4)C3)no2)cc1C#N (stereo not drawn) [Hydrochloride of compound 32]"
  Numeric result: 95.9
- Compound: "CC(C)Oc1ccc(-c2nc(-c3cccc4c3CCC43CCN(CC4(C(=O)O)CC4)C3)no2)cc1C(F)F (stereo not drawn) [Hydrochloride of compound 29]"
  Numeric result: 91.5

----------
# Test method notes: Pharmacokinetic evaluation in CD-1 mice (intravenous and oral)
# Assay type: in vivo
# Particulars: male, mouse, plasma, intravenous injection 0.5 mg/kg (oral 2.0 mg/kg), read-out: Clearance rate CL
# Source text: Test Embodiment 4: Pharmacokinetic Evaluation of Compound in Mice Experimental objective: to test the pharmacokinetics of the compound in CD-1 mice CD-1 mice (male, 20-40 g, 6-10 weeks old, Shanghai BK) The standard protocol was used to test the pharmacokinetic characteristics of rodents after intravenous injection and oral administration of the compound. […]
Counter-ions that a name gives are not always drawn.
Quantity measured: clearance (mL/min/kg)

- Molecule: "CC(C)Oc1ccc(-c2nc(-c3cccc4c3CCC43CCN(C(=O)CO)C3)no2)cc1C#N (stereo not drawn)"
  clearance, mL/min/kg: 18.2

a: CC(C)Oc1ccc(-c2nc(-c3cccc4c3CCC43CCN(CC4(C(=O)O)CC4)C3)no2)cc1C#N (stereo not drawn) [Hydrochloride of compound 22]
b: CC(C)Oc1ncc(-c2nc(-c3cccc4c3CCC43CCN(C(=O)CO)C3)no2)cc1C#N (stereo not drawn)
Q) Out of a and b , name the one with the higher clearance. # answer = label of selected item
A) a
(a: 5.2 mL/min/kg, b: 3.58 mL/min/kg)

----------
# Test method notes: Pharmacokinetic evaluation in SD rats at different oral doses
# Assay type: in vivo, Sprague Dawley rats
# Particulars: male, Sprague-Dawley, rat, plasma, po, 30 mg/kg, single oral administration 30 mg/kg, read-out: Half-life T1/2 (PO) (converted)
Counter-ions that a name gives are not always drawn.
Quantity measured: half-life (h)
Answer in h, number only, no unit symbol.

Q) Look up and report measured half-life for this entry: CC(C)Oc1ccc(-c2nc(-c3cccc4c3CCC43CCN(CC4(C(=O)O)CC4)C3)no2)cc1C#N (stereo not shown) [Hydrochloride of compound 22]
A) 8.24

----------
# Test method notes: Pharmacokinetic evaluation in SD rats (intravenous and oral)
# Assay type: in vivo
# Particulars: male, Sprague-Dawley, plasma; SD rat; intravenous injection 0.8 mg/kg (oral 2.4 mg/kg); read-out: Tissue distribution Vdss
# Text: Test Embodiment 3: Pharmacokinetic Evaluation of Compound in Rats Experimental objective: to test the pharmacokinetics of the compound in SD rats Sprague Dawley rat (male, 200-300 g, 7-9 weeks old, Shanghai SLAC) A standard protocol was used to test the pharmacokinetic characteristics of rodents after intravenous injection and oral administration of the compound. […]
Where a name gives a salt, the structure may show the parent alone.
Quantity measured: Vd (L/kg)
Answer in L/kg, number only, no unit symbol.

Q) Look up and report measured Vd for this entry: CC(C)Oc1ccc(-c2nc(-c3cccc4c3CCC43CCN(CC4(C(=O)O)CC4)C3)no2)cc1C#N (stereo not shown) [Hydrochloride of compound 22]
A) 1.6

----------
# Test method notes: Pharmacokinetic evaluation in SD rats at different oral doses
# Format: in vivo, Sprague Dawley rats
# Particulars: male, Sprague-Dawley, rat, plasma, po, 30 mg/kg, single oral administration 30 mg/kg, read-out: Peak time Tmax
Counter-ions that a name gives are not always drawn.
Quantity measured: Tmax (h)
Answer in h, number only, no unit symbol.

Q) Look up and report measured Tmax for this entry: CC(C)Oc1ccc(-c2nc(-c3cccc4c3CCC43CCN(CC4(C(=O)O)CC4)C3)no2)cc1C#N (stereo not shown) [Hydrochloride of compound 22]
A) 2

----------
# Test method notes: Pharmacokinetic evaluation in SD rats at different oral doses
# Format: in vivo, Sprague Dawley rats
# Particulars: male, Sprague-Dawley, rat, plasma, po, 5 mg/kg, single oral administration 5 mg/kg, read-out: Half-life T1/2 (PO) (converted)
Quantity measured: half-life (h)
Answer in h, number only, no unit symbol.

Q) Look up and report measured half-life for this entry: CC(C)Oc1ccc(-c2nc(-c3cccc4c3CCC43CCN(CC4(C(=O)O)CC4)C3)no2)cc1C#N (single isomer, unassigned) [Compound 22B]
A) 6.7
